target: human Y4 receptor (human, UniProt P50391 1-375); test: 125I-PP displacement
Sequence (P50391 whole entry): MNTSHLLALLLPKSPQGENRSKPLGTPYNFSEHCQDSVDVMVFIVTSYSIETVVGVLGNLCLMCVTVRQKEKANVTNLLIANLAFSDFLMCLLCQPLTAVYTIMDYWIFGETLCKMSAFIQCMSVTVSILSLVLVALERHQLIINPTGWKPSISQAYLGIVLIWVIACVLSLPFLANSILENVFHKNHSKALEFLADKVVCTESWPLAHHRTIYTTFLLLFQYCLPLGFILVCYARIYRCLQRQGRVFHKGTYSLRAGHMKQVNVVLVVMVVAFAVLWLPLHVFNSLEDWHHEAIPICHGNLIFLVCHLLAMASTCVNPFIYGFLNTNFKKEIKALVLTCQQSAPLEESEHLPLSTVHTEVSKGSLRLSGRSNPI
Readout type: IC50 (nM)

[1] 4057260 (protein) CAPLEPEYPGDDATPQQMAKYAADLRRYINKLTRPRYCAPLEPEYPGDDATPQQMAKYAADLRRYINKLTRPRY
[2] PAPLEPVYPGDNATPEQVAKYAADLRRYINKLTRPRY [4057146]
[3] PLEPVYPGDNATPEQMAKYAADLRRYINKLTRPRY [4057261]
Input: Please give the order of these binders when sorted by IC50, largest value leading. Respond with an ordered listing of the labels, as requested.
Output: 1, 2, 3

[A] 4057255 (protein) CAPLEPVYPGDNATPEQMARYAADLRRYINKLTRPRYCAPLEPVYPGDNATPEQMARYAADLRRYINKLTRPRY
[B] PAPLEPEYPGDDATPQQMAKYAADLRRYINKLTRPRY [4057258]
Input: Kindly identify the item with the lower IC50 figure among these two: A and B Respond with the label that goes with your answer.
Output: B
(B: 0.078 nM, A: 0.22 nM)

[1] HAPLEPVYPGDNATPEQMARYAAELRRYINKLTRPRY [4057228]
[2] PAPLEPEYPGDNATPEQMAKYAADLRRYINKLTRPRY [4057232]
Input: Would you let me know which has the greater IC50 value, 1 or 2 ? Respond with the label that goes with your answer.
Output: 2
